target: KRAS G12C (Homo sapiens, UniProt P01116, G12C); assay: GDP-GTP exchange assay (bodipy-GDP/GppNHp, SOS1); conditions: bodipy-loaded KRAS G12C 2.5 nM, SOS1 150 nM, 2 hours pre-incubation with inhibitor; read-out: G12C_exchange IC50
Sequence (P01116 1-188 isoform P01116-2 G12C): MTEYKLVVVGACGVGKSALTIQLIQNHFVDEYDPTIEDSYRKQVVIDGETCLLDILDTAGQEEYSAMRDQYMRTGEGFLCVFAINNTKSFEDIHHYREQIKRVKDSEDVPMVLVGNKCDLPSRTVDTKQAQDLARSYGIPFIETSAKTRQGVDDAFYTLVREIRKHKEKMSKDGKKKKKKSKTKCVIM
pIC50: −log10 of the molar value.
For each record, write down the corresponding pIC50.

INSERT INTO assay_data (compound, observed) VALUES
  ('C=Cc1cnc2n1CCN(c1nc(OCCCN3CCOCC3)nc3c1CCN(c1cccc4cccc(Cl)c14)C3)C2', '5.30 to 6.00'),
  ('C=Cc1ncc2n1CCN(c1nc(OC[C@@H]3CCCN3C)nc3c1CCN(c1cccc4cccc(Cl)c14)C3)C2', '6.00 to 7.00'),
  ('C=Cc1ncc2n1CCN(c1nc(OCCCN3CCOCC3)nc3c1CCN(c1cccc4cccc(Cl)c14)C3)C2', '6.00 to 7.00');

Give pIC50 for all compounds that follow.
1. C=Cc1ncc2n1CCN(c1nc(OC[C@@H]3CCCN3Cc3ccccc3)nc3c1CCN(c1cccc4cccc(Cl)c14)C3)C2
2. C=Cc1ncc2n1CCN(c1nc(OCCCN3CCCCC3)nc3c1CCN(c1cccc4cccc(Cl)c14)C3)C2
3. C=Cc1ncc2n1CCN(c1nc(OCC3(C#N)CCCC3)nc3c1CCN(c1cccc4cccc(Cl)c14)C3)C2

Given back:
1: 6.00 to 7.00; 2: 6.00 to 7.00; 3: 5.30 to 6.00

Give pIC50 for all compounds that follow.
1. C=Cc1ncc2n1CCN(c1nc(OC[C@H]3CCCN3C)nc3c1CCN(c1cc(O)cc4ccccc14)C3)C2
2. C=Cc1ncc2n1CCN(c1nc(OCCC3CCCN3C)nc3c1CCN(c1cccc4cccc(Cl)c14)C3)C2 (stereo not drawn)
3. C=Cc1ncc2n1CCN(c1nc(OC[C@@H]3CCCN3C)nc3c1CCN(c1cc(O)cc4ccccc14)C3)C2
4. C=Cc1ncc2n1CCN(c1nc(OCCCN3CCOCC3)nc3c1CCN(c1cccc4ccccc14)C3)C2
5. C=Cc1ncc2n1CCN(c1nc(OCC3CCCN(C)C3)nc3c1CCN(c1cccc4cccc(Cl)c14)C3)C2 (stereo not drawn)
6. C=Cc1ncc2n1CCN(c1nc(OC[C@@H]3CCCN3C)nc3c1CCN(c1cccc4ccccc14)C3)C2
7. C=Cc1ncc2n1CCN(c1nc(OCCCN3CCOCC3)nc3c1CCN(c1cc(O)cc4ccccc14)C3)C2

Given back:
1: 6.00 to 7.00; 2: 6.00 to 7.00; 3: 6.00 to 7.00; 4: ≥ 7.00; 5: 6.00 to 7.00; 6: ≥ 7.00; 7: 5.30 to 6.00

Give pIC50 for all compounds that follow.
1. C=Cc1cnc2n1CCN(c1nc(OC[C@@H]3CCCN3C)nc3c1CCN(c1cccc4cccc(Cl)c14)C3)C2
2. C=Cc1ncc2n1CCN(c1nc(OCC3CCCCN3C)nc3c1CCN(c1cccc4cccc(Cl)c14)C3)C2 (stereo not drawn)

Given back:
1: 5.30 to 6.00; 2: 6.00 to 7.00
